# Tested on: pigweed (Amaranthus retroflexus)
# experiment: Test B pre-/postemergence plant response
# Format: in vivo
# run.conditions: 125 g ai/ha, postemergence; 0 to 100 scale, 0 no effect, 100 complete control
Label Condition met when Plant response rating, Pigweed is strictly below 70; at or above that, label Condition not met.

// below: answered molecules
INSERT INTO results (molecule, discrete_label) VALUES
  ('FC(F)(F)c1cc(-c2c(Cl)cccc2Oc2ncc(Cl)cn2)on1 [Compound 126]', 'Condition not met'),
  ('FC(F)(F)c1csc(-c2ccccc2Oc2ncc(I)cn2)n1 [Compound 138]', 'Condition met'),
  ('Clc1cnc(Oc2ccccc2-c2ccsc2)nc1 [Compound 231]', 'Condition met');

Does the reported Plant response rating, Pigweed of the following molecule sit strictly below 70? CC(C)n1nc(C(F)(F)F)cc1-c1c(C#N)cccc1Oc1ncc(Cl)cn1 [Compound 90]
Condition met

Does the reported Plant response rating, Pigweed of the following molecule sit strictly below 70? Cc1cc(-c2c(F)cccc2Oc2ncc(Cl)cn2)on1 [Compound 229]
Condition not met

* * *

# Test system: corn (Zea mays)
# experiment: Test D pre-/postemergence plant response
# Format: in vivo
# run.conditions: Zea mays, pre-emergence; Preemergence; 31 g ai/ha; scale 0 to 100 (0 no effect, 100 complete control)
readout.kind: Corn plant response rating (crop injury, 0 = no effect, 100 = complete kill) at 31 g/ha (%)
Give the value in % but do not write % after it.

INSERT INTO assay_data (compound_string, target_desc, measurement_unit, recorded_value) VALUES
  ('FC(F)c1cc(-c2ccccc2Oc2ncc(Br)cn2)no1', 'corn (Zea mays)', '%', 35),
  ('N#Cc1cccc(Oc2ncc(Cl)cn2)c1-c1cc(C(F)(F)F)ccn1', 'corn (Zea mays)', '%', 0),
  ('FC(F)(F)c1cc(-c2ccccc2Oc2ncc(Cl)cn2)no1', 'corn (Zea mays)', '%', 0);

// Corn plant response rating (crop injury, 0 = no effect, 100 = complete kill) at 31 g/ha (corn (Zea mays)) for `FCc1cc(-c2ccccc2Oc2ncc(Cl)cn2)no1` = 0

// Corn plant response rating (crop injury, 0 = no effect, 100 = complete kill) at 31 g/ha (corn (Zea mays)) for `Fc1cccc(Oc2ncc(Cl)cn2)c1-c1cc(C(F)F)on1` = 20

* * *

# Test system: soybean (Glycine max)
# experiment: Test D pre-/postemergence plant response
# Type: in vivo
# run.conditions: Preemergence; 16 g ai/ha; scale 0 to 100 (0 no effect, 100 complete control)
readout.kind: Plant response rating, Soybean

INSERT INTO results (molecule, target_desc, recorded_value) VALUES
  ('FC(F)c1cc(-c2c(Cl)cccc2Oc2ncc(Cl)cn2)on1 [Compound 120]', 'soybean (Glycine max)', 75);

Looking up FC(F)Oc1cccc(Oc2ncc(Cl)cn2)c1-c1cc(C(F)F)on1 [Compound 131] , I see its Plant response rating, Soybean listed as 5

Looking up FC(F)(Cl)c1cc(-c2ccccc2Oc2ncc(Cl)cn2)no1 [Compound 143] , I see its Plant response rating, Soybean listed as 5

Looking up Clc1cnc(Oc2ccccc2-c2cc(C3CC3)on2)nc1 [Compound 183] , I see its Plant response rating, Soybean listed as 0

* * *

# Test system: wheat (Triticum aestivum)
# experiment: Test B pre-/postemergence plant response
# Type: in vivo
# run.conditions: Triticum aestivum, post-emergence, 240 h; Postemergence, 500 g ai/ha; 0 to 100 scale (0 no effect, 100 complete control); read-out: Plant response rating, Wheat
readout.kind: plant injury at 500 g/ha (%)
Give the value in % but do not write % after it.

Examples with their reported plant injury at 500 g/ha follow.
INSERT INTO assay_data (compound_string, readout_kind, measurement_unit, recorded_value) VALUES
  ('FC(F)(F)c1nccc(-c2ccccc2Oc2ncc(Br)cn2)n1', 'plant injury at 500 g/ha', '%', 0),
  ('FC(F)c1cc(-c2ccccc2Oc2ncc(Br)cn2)no1', 'plant injury at 500 g/ha', '%', 30),
  ('Cc1ccc(Oc2ncc(Cl)cn2)c(-c2ccc(C(F)(F)F)nc2)c1', 'plant injury at 500 g/ha', '%', 0);

Read the next record carefully.
Looking up `FC(F)(F)Oc1ccc(-c2ccccc2Oc2ncc(Cl)cn2)cc1` , I see its plant injury at 500 g/ha listed as 0

* * *

# Test system: pigweed (Amaranthus retroflexus)
# experiment: Test B pre-/postemergence plant response
# Format: in vivo
# run.conditions: Preemergence, 125 g ai/ha; 0 to 100 scale (0 no effect, 100 complete control)
# Description: […]
Label fulfilled when Pigweed plant response rating is strictly below 40; at or above that, label not fulfilled.

INSERT INTO measurements (compound_string, target_desc, discrete_label) VALUES
  ('Fc1ccc(Oc2ncc(Cl)cn2)c(-c2cc(C(F)(Cl)Cl)on2)c1', 'pigweed (Amaranthus retroflexus)', 'not fulfilled');

Does the reported Pigweed plant response rating of the following compound sit strictly below 40? `FC(F)(F)c1cc(-c2c(Cl)cccc2Oc2ncc(Cl)cn2)no1`
not fulfilled

Does the reported Pigweed plant response rating of the following compound sit strictly below 40? `Cc1noc(C)c1-c1c(C#N)cccc1Oc1ncc(Cl)cn1`
not fulfilled

Does the reported Pigweed plant response rating of the following compound sit strictly below 40? `FC(F)c1cc(-c2ccccc2Oc2ncc(Cl)cn2)co1`
fulfilled

Does the reported Pigweed plant response rating of the following compound sit strictly below 40? `Cn1nc(-c2c(C#N)cccc2Oc2ncc(Cl)cn2)cc1C(F)(F)F`
not fulfilled

Does the reported Pigweed plant response rating of the following compound sit strictly below 40? `FC(F)c1cc(-c2c(Cl)cccc2Oc2ncc(Cl)cn2)no1`
not fulfilled

Does the reported Pigweed plant response rating of the following compound sit strictly below 40? `Cc1ccnc(-c2ccccc2Oc2ncc(Cl)cn2)c1`
fulfilled

Does the reported Pigweed plant response rating of the following compound sit strictly below 40? `COc1ccnc(-c2ccccc2Oc2ncc(Cl)cn2)c1`
fulfilled

Does the reported Pigweed plant response rating of the following compound sit strictly below 40? `Clc1cnc(Oc2ccccc2-c2cc(Cl)ncn2)nc1`
fulfilled

Does the reported Pigweed plant response rating of the following compound sit strictly below 40? `Fc1cccc(Oc2ncc(Cl)cn2)c1-c1cn(CC(F)(F)F)cn1`
fulfilled

Does the reported Pigweed plant response rating of the following compound sit strictly below 40? `Clc1cnc(Oc2ccccc2-c2cnccn2)nc1`
fulfilled

* * *

# System: ragweed (common ragweed, Ambrosia elatior)
# experiment: Test B pre-/postemergence plant response
# Assay type: in vivo
# run.conditions: Postemergence, 500 g ai/ha; 0 to 100 scale (0 no effect, 100 complete control)
readout.kind: Plant response rating, Ragweed

Examples with their reported Plant response rating, Ragweed follow.
INSERT INTO assay_data (compound_string, recorded_value) VALUES
  ('Cn1cc(-c2ccccc2Oc2ncc(Cl)cn2)nn1', 60),
  ('Clc1cnc(Oc2ccccc2-c2ccon2)nc1', 100),
  ('Cn1nnc(-c2ccccc2Oc2ncc(Br)cn2)n1', 60),
  ('N#Cc1cccc(Oc2ncc(Cl)cn2)c1-c1cc(C(F)F)on1', 70),
  ('Cc1c(-c2ccccc2Oc2ncc(Cl)cn2)noc1C(F)(F)F', 0);

Looking up `FC(F)(F)c1cc(-c2c(Cl)cccc2Oc2ncc(Cl)cn2)no1` , I see its Plant response rating, Ragweed listed as 30

Looking up `Cn1nnnc1-c1ccccc1Oc1ncc(Cl)cn1` , I see its Plant response rating, Ragweed listed as 30

Looking up `Cc1cc(-c2ccccc2Oc2ncc(Cl)cn2)on1` , I see its Plant response rating, Ragweed listed as 100

Looking up `Clc1cnc(Oc2ccccc2-c2cccs2)nc1` , I see its Plant response rating, Ragweed listed as 10

Looking up `ON=Cc1cc(-c2ccccc2Oc2ncc(Cl)cn2)no1` , I see its Plant response rating, Ragweed listed as 0

Looking up `FC(F)(F)c1csc(-c2ccccc2Oc2ncc(Br)cn2)n1` , I see its Plant response rating, Ragweed listed as 0

Looking up `Clc1cnc(Oc2ccccc2-c2cc(C3CC3)on2)nc1` , I see its Plant response rating, Ragweed listed as 30

* * *

# Test system: green foxtail (Setaria viridis)
# experiment: Test E pre-/postemergence plant response
# Format: in vivo
# run.conditions: pre-emergence, 125 g ai/ha, Preemergence, scale 0 to 100, read-out: Plant response rating, Foxtail, Green
Listing of recorded pest or weed control at 125 g/ha by entry.
Give the value in % but do not write % after it.

INSERT INTO assay_data (molecule, target_desc, recorded_value) VALUES
  ('FC(F)c1cc(-c2ccccc2Oc2ncc(Br)cn2)no1 [Compound 62]', 'green foxtail (Setaria viridis)', 85),
  ('Fc1cccc(Oc2ncc(Cl)cn2)c1-c1cc(C(F)(F)F)on1 [Compound 168]', 'green foxtail (Setaria viridis)', 100);

Looking up FC(F)c1cc(-c2ccccc2Oc2ncc(Cl)cn2)on1 [Compound 53] , I see its pest or weed control at 125 g/ha listed as 55

Looking up Fc1cccc(Oc2ncc(Cl)cn2)c1-c1cc(C(F)F)on1 [Compound 55] , I see its pest or weed control at 125 g/ha listed as 100
